biological target: Melanocortin receptor 3 (Homo sapiens)
Sequence (P41968 whole entry): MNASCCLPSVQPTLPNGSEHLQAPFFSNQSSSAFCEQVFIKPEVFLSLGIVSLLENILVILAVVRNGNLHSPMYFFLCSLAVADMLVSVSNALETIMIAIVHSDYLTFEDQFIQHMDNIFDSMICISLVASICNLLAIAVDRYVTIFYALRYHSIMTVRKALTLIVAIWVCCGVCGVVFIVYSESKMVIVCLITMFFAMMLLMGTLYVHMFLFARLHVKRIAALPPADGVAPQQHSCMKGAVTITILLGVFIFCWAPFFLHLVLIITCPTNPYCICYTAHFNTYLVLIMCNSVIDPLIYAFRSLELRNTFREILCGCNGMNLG
pKi: −log10 of the molar value.
recorded.metric: pKi

> print(dat)
                                   compound  meas.value
1  CC(NC1CCCNC1)c1ccccc1N1CCN(C(=O)[C@@H](Cc2ccc(Cl)cc2)NC(=O)c2cnc3ccccc3c2)CC1 (stereo partly specified)        6.20

====

biological target: Melanocortin receptor 4 (Homo sapiens, UniProt P32245)
Sequence (P32245 whole entry): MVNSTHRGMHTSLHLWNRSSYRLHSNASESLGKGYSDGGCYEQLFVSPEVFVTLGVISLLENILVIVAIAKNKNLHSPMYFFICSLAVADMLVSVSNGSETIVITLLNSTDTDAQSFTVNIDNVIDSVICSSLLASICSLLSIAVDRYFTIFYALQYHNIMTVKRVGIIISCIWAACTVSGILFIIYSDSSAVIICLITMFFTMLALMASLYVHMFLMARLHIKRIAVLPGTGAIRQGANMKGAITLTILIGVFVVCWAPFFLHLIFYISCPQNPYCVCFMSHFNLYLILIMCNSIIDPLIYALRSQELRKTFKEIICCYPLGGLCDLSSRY
pKi: −log10 of the molar value.
We use 7 as the dividing line for pKi: on or above the line is TRUE, below is FALSE.

> print(dat)
                                    compound                               test.target  classification
 1  O=C(N[C@H](Cc1ccc(Cl)cc1)C(=O)N1CCN(c2ccccc2CN2CCOCC2)CC1)[C@H]1Cc2ccccc2CN1  Melanocortin receptor 4 (Homo sapiens, UniProt P32245)            TRUE
 2  O=C(N[C@H](Cc1ccc(Cl)cc1)C(=O)N1CCN(c2ccccc2CNCCCn2ccnc2)CC1)[C@H]1Cc2ccccc2CN1  Melanocortin receptor 4 (Homo sapiens, UniProt P32245)           FALSE
 3  CC(NC1CCCNC1)c1ccccc1N1CCN(C(=O)[C@@H](Cc2ccc(Cl)cc2)NC(=O)C(N)Cc2cccnc2)CC1 (stereo not given in full)  Melanocortin receptor 4 (Homo sapiens, UniProt P32245)            TRUE
 4  CC(NC1CCCNC1)c1ccccc1N1CCN(C(=O)[C@@H](Cc2ccc(Cl)cc2)NC(=O)CCc2ccccc2)CC1 (stereo not given in full)  Melanocortin receptor 4 (Homo sapiens, UniProt P32245)            TRUE
 5  CC(NC1CCCNC1)c1ccccc1N1CCN(C(=O)[C@@H](Cc2ccc(Cl)cc2)NC(=O)C2(N)Cc3ccccc3C2)CC1 (stereo not given in full)  Melanocortin receptor 4 (Homo sapiens, UniProt P32245)            TRUE
 6  CC(NC1CCCNC1)c1ccccc1N1CCN(C(=O)[C@@H](Cc2ccc(Cl)cc2)NC(=O)C2(N)CCc3ccccc32)CC1 (stereo not given in full)  Melanocortin receptor 4 (Homo sapiens, UniProt P32245)            TRUE
 7  CC(C)COCCCNC(C)c1ccccc1N1CCN(C(=O)[C@@H](Cc2ccc(Cl)cc2)NC(=O)[C@H]2Cc3ccccc3CN2)CC1 (stereo not given in full)  Melanocortin receptor 4 (Homo sapiens, UniProt P32245)            TRUE
 8  CC(NC1CCCNC1)c1ccccc1N1CCN(C(=O)[C@@H](Cc2ccc(Cl)cc2)NC(=O)C(N)Cc2ccccc2)CC1 (stereo not given in full)  Melanocortin receptor 4 (Homo sapiens, UniProt P32245)            TRUE
 9  CC(NC1CCCNC1)c1ccccc1N1CCN(C(=O)[C@@H](Cc2ccc(Cl)cc2)NC(=O)Cc2ccccc2)CC1 (stereo not given in full)  Melanocortin receptor 4 (Homo sapiens, UniProt P32245)            TRUE
10  CN1CCN(Cc2ccccc2N2CCN(C(=O)[C@@H](Cc3ccc(Cl)cc3)NC(=O)[C@H]3Cc4ccccc4CN3)CC2)CC1  Melanocortin receptor 4 (Homo sapiens, UniProt P32245)           FALSE
11  CC(NC1CCCNC1)c1ccccc1N1CCN(C(=O)[C@@H](Cc2ccc(Cl)cc2)NC(=O)C(N)Cc2ccccn2)CC1 (stereo not given in full)  Melanocortin receptor 4 (Homo sapiens, UniProt P32245)            TRUE
